# MEASURED_TARGET: T1, human chemokine (C-C motif) receptor 8 (CCR8) (human, UniProt P51685 1-355)
# T1 construct: also called hCCR8
# T1 sequence (P51685 whole entry): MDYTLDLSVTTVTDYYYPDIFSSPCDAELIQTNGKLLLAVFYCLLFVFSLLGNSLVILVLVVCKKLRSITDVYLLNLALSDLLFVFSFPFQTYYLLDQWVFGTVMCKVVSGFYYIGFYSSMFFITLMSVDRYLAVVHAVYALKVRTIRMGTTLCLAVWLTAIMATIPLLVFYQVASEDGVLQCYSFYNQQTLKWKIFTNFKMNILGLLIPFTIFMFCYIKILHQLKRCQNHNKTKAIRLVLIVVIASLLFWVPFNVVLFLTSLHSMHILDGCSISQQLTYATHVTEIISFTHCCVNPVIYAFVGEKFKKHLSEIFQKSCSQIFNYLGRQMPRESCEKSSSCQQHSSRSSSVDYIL
# ASSAY_OVERVIEW: flow cytometry blocking, human PBMC, CD3+ gate; competitor PE-AB11
OUTCOME_MEASURE: % Blocking (%)
Use % as the unit, but write only the number.

anti-CCR8 monoclonal antibody AB5 (antibody, V domains shown, Hybridoma monoclonal; also called antibody 5; clone 5) VH: QVQLKESGPGLVQPSQTLSLTCTVSGFSLTSYHVSWVRQPPGKGLEWMGVIWTGGSTTYNSLLKSRLSISRDISKSQVFLKMNSLQTEDTATYYCARGGTVVKGGFAYWGQGTLVTVSS VL: DIQMTQSPASLSASLEEIVTITCQASQDIGNRLSWYQQKPGKSPQLLIYGATSLADGVPSRFSGSRSGTQYSLKISRLQVEDIGIYYCLQAYSTPLTFGSGTKLEIK    -1.71
anti-CCR8 monoclonal antibody AB8 (antibody, V domains shown, Hybridoma monoclonal; also called antibody 8; clone 8) VH: AVQLVESGGGLVQPKESLKISCAASGFIFSNAAMYWVRQAPGKGLQWVARIRTKPKNYATYYIDSVKGRFTISRDDSKSMVYLQMDNLKTEDTAMYYCNTMGLTRAYYFDYWGQGVMVTVSS VL: DIQMTQSPSFLSASVGDRVTINCKASQNINRYLNWYQQKLGEAPKLLIYNANSLQTGIPSRFSGSGSGTDFTLTIRSLQPEDVATYFCLQHNSWPWTFGGGTKLELK    90.2

Pending binder:
Which measured % Blocking value corresponds to anti-CCR8 monoclonal antibody AB7 (antibody, V domains shown, Hybridoma monoclonal; also called antibody 7; clone 7) VH: AVQLVESGGGLVQPKESLKISCAASGFTFSYAAMYWVRQTPGKGLEWVARIRTKPNNYATYYADSVKGRFTISRDDSKSMVYLQMDNLKSEDTAMYYCNIMGITRGYYFDYWGQGVMVTVSS VL: DIQMTQSPSFLSASVGDRVTINCKASQNINRYLNWYQQQLGEAPKLLIYNANNLQTGIPSRFSGSRSGTDFTLTISSLQPEDVATYFCLQHNSWPWTFGGGTKLELK ?
98
